# Substrate: Nc1ncnc2c1ncn2[C@@H]1O[C@H](COP(=O)(O)O)[C@@H](OP(=O)(O)O)[C@H]1O
# MEASUREMENT NOTES: HPLC of AMP product, initial rates, double reciprocal plot
# Format: biochemical, Pyrococcus yayanosii
# CONDITION INFO: 20 mM Tris-HCl pH 8.0, 50 mM NaCl, 1.0 mM MnCl2, 1.0 mM DTT, 100 µg/mL BSA, 70 °C
MEASURED ENDPOINT: Km

| PROTEIN | VALUE MEASURED |
| --- | --- |
| PyapApase (Pyrococcus yayanosii CH1) (protein) MLALIIHHWDTDGITTAALLVRALELGDFKNMTPPIGEFRFDGKIWAAIERADKLYVLDLNLPQEVEKVPVETLFIDHHIQPRIKNPRVRQVNPALEGKHYPSASLVVSEHFGIFNAWSALGAVGDIGEKAFELSRVEELLKGEGLSREDALKLVELIDSNYIVMDRMAVEEALHVLLNYELRELLEYEPWIRRVEAIKEAVEEVMSSVEERNGFAIVDFESPFNIISKVARKLVWEKGYRGAVVVNRNFHGKAQVYFRVSPKEAERISVLTIIGKLRGLGVNAGGKREVIGCICERGKLDEVLSVIDAYLG | 272 ± 12.6 µM |
| PyapApase (Pyrococcus yayanosii CH1; D12A) (protein) MLALIIHHWDTAGITTAALLVRALELGDFKNMTPPIGEFRFDGKIWAAIERADKLYVLDLNLPQEVEKVPVETLFIDHHIQPRIKNPRVRQVNPALEGKHYPSASLVVSEHFGIFNAWSALGAVGDIGEKAFELSRVEELLKGEGLSREDALKLVELIDSNYIVMDRMAVEEALHVLLNYELRELLEYEPWIRRVEAIKEAVEEVMSSVEERNGFAIVDFESPFNIISKVARKLVWEKGYRGAVVVNRNFHGKAQVYFRVSPKEAERISVLTIIGKLRGLGVNAGGKREVIGCICERGKLDEVLSVIDAYLG | 790 ± 47.7 µM |
